system: L929; experiment: Growth inhibition of mouse L929 cells after 5 days by MTT assay; assay type: functional, cell-based; settings: L929, 120 h
REPORTED METRIC: IC50 (µg/mL)

>>> meas_value("COc1ccc(NC(C)c2ccccc2)cc1 (configuration not stated)")
30
>>> meas_value("COc1ccc(CNc2ccc(O)c([N+](=O)[O-])c2)cc1")
20
>>> meas_value("O=[N+]([O-])c1cc(O)ccc1NCc1ccccc1")
9
>>> meas_value("COc1ccc(NC(C)c2ccco2)cc1 (configuration not stated)")
40

----------
tested on: L929; experiment: Growth inhibition of mouse L929 cells after 5 days by MTT assay; type: functional, cell-based; conditions: L929, 120 h
REPORTED METRIC: IC50 (µg/mL)

>>> meas_value("Cc1ccc(N(Cc2ccccc2)CC(C)C)cc1")
5
>>> meas_value("CC(=O)c1ccc(NCc2ccccc2)cc1")
22
>>> meas_value("COc1ccc(NC(C)c2ccsc2)cc1 (stereo not drawn)")
30
>>> meas_value("COc1ccc(N(Cc2ccccc2)Cc2ccccc2)cc1")
12
>>> meas_value("COc1ccc(N(Cc2ccccc2OC)CC(C)C)cc1")
15
>>> meas_value("c1ccc(CNc2ccccn2)cc1")
35
>>> meas_value("CCCCCCCCCNc1ccc(OC)cc1")
12
>>> meas_value("Cc1ccc(N(Cc2ccccc2)Cc2ccccc2)cc1")
11
>>> meas_value("COc1ccc(N(CC(C)C)CC(C)C)cc1")
25

----------
Reported IC50 values for the following compounds.
tested on: L929; assay: Growth inhibition of mouse L929 cells after 5 days by MTT assay; format: functional, cell-based; conditions: L929, 120 h
REPORTED METRIC: IC50

>>> meas_value("COc1ccc(N(Cc2ccccc2)Cc2ccc([N+](=O)[O-])cc2)cc1")
"> 40 µg/mL"
>>> meas_value("COc1ccc(NCC(C)C)cc1")
"> 40 µg/mL"
>>> meas_value("COc1ccc(N(Cc2ccccc2)Cc2ccccc2OC)cc1")
"> 40 µg/mL"

Sourced from ChEMBL document CHEMBL1137523
